Where do the numbers come from? From the supplement of paper PMC7877785.

# Experiment Notes: self-splicing fitness, log relative to wild type (ln ratio); higher = more splicing; Tetrahymena group I intron in knt gene, E. coli kanamycin selection, DiMSum; sequences stand for … in CUCUCU…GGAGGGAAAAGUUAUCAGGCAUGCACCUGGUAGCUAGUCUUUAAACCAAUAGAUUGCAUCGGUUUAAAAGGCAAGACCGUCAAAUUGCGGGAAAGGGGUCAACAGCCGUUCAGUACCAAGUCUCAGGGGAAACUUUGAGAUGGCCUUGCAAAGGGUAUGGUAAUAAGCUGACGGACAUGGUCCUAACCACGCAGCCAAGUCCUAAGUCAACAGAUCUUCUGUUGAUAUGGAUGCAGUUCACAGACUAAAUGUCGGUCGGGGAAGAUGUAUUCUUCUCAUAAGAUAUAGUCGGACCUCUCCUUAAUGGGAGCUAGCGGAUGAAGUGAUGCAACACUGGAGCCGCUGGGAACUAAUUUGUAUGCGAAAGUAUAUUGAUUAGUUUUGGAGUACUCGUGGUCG;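 also: selection with 25 µg/mL kanamycin versus none on LB agar overnight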
# Experimental Conditions: 30 °C
Metric: self-splicing fitness (ln)

| Residues | Recorded Measurement |
| --- | --- |
| UUGAAGCAAUAUUACGUGAU | -2.29 |
| AAAUAGCAAUAUUACGGUCG | -0.942 |
| UCUCAGCAAUAUUACGGGUC | -4.37 |
| UCUGAGCAAUAUUACGCUUU | -3.64 |
| ACGCAGCAAUAUUACGCAUC | -2.1 |
| AUCGAGCAAUAUUACGUCCU | -1.18 |
| CAUCAGCAAUAUUACGCCAC | -2.77 |
| ACAAAGCAAUAUUACGACAU | -0.488 |
| CAUCAGCAAUAUUACGUGUA | -1.18 |
| ACCCAGCAAUAUUACGUAAU | -0.676 |
